Value source: PubChem BioAssay (Tox21)

- tested_on: Estrogen receptor (Homo sapiens) (UniProt P03372)
- Sequence (P03372 whole entry, looked up): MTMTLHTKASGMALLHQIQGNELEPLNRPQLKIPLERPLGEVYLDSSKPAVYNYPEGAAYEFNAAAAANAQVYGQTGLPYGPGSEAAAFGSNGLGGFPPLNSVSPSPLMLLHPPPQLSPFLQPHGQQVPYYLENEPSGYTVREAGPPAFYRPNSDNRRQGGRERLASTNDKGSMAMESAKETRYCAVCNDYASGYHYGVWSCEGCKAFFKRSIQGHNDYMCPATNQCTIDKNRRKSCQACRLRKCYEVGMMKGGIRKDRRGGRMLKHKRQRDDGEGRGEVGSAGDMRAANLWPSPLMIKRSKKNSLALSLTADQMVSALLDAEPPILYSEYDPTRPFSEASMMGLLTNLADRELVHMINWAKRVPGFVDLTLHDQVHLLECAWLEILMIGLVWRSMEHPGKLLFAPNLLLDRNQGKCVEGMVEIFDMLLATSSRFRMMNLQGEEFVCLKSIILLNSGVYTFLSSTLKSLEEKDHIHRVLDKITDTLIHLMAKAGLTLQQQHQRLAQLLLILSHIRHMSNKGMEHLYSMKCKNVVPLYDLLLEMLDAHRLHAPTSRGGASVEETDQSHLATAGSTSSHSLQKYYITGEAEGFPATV
- protocol_summary: qHTS assay to identify small molecule agonists of the estrogen receptor alpha (ER-alpha) signaling pathway in the presence of an antagonist (AID 1259383); further: top concentration of the series differs between compounds; nearly all actives have a fitted effect of over 15% in size
- run_parameters: VM7Luc4E2 cells, ERE-luciferase, +ICI-182,780, 22 h; series mostly up to 92.4 µM
Activity calls are given as the source filed them. The call rests on the fitted dose curve.
measured_attribute: activation

Guide cases for activation, answers given:
>>> obs_value("CC(C(=O)O)c1ccc(CC2CCCC2=O)cc1 (stereo unspecified)")
"inactive"
>>> obs_value("CC(=O)c1ccccc1O")
"inactive"
>>> obs_value("CN(C)CCCSc1ccccc1NC(=O)/C=C/c1ccccc1")
"inactive"
>>> obs_value("CN1N=C(C(N)=O)CCC1=O")
"inactive"
>>> obs_value("O=C1NC(=O)[C@@]2(CCOc3ccc(F)cc32)N1")
"inactive"

Q: Return activation for the following molecule: `Cc1c(NC(C)C)c(=O)n(-c2ccccc2)n1C`
Result: inactive

Q: Return activation for the following molecule: `Cc1cc(O)cc2c1O[C@](C)(CCC[C@H](C)CCC[C@H](C)CCCC(C)C)CC2`
Result: inactive

Q: Return activation for the following molecule: `COC(=O)C1=C(C)NC(C)=C(C(=O)OC)C1c1ccccc1[N+](=O)[O-]`
Result: inactive

Q: Return activation for the following molecule: CCC(C)C1CCCCC1=O (stereo unspecified)
Result: inactive

Q: Return activation for the following molecule: `Cc1c(O)cccc1O`
Result: inactive

Q: Return activation for the following molecule: `O=C(O)Cc1ccc(CCNS(=O)(=O)c2ccc(Cl)cc2)cc1`
Result: inactive

Q: Return activation for the following molecule: `CCN(CC)CCNC(=O)c1cc(S(C)(=O)=O)ccc1OC`
Result: inactive

Q: Return activation for the following molecule: `CCCCCCCCCCCCCCCCC`
Result: inactive

---

- protocol_summary: qHTS assay to identify small molecule agonists of the peroxisome proliferator-activated receptor delta (PPARd) signaling pathway - cell viability counter screen (AID 743211); further: nearly all actives have a fitted effect of over 55% in size
- run_parameters: PPARd-bla HEK293H viability, CellTiter-Glo luminescence, 17 h; series mostly up to 62.6 µM
Results filed as inconclusive are left out. Calls of active or inactive are those of the source. Calls follow the shape of the dose curve; as a rule, active = well fitted cell-killing curve with a large enough effect in the repeat runs; inconclusive = weak or mixed curves; inactive = no such curve, though single readings can be large or run the other way.
measured_attribute: activity change, negative = cytotoxicity

>>> obs_value("CCCN1CCCC[C@H]1C(=O)Nc1c(C)cccc1C")
"inactive"
>>> obs_value("CO[Si](CCCOCC1CO1)(OC)OC (configuration not stated)")
"inactive"
>>> obs_value("CC(C)(c1ccc(O)cc1)c1ccc(O)cc1")
"inactive"
>>> obs_value("O=Cc1cccc([N+](=O)[O-])c1")
"inactive"

Q: Return activity change, negative = cytotoxicity for the following molecule: `C=C(C)CS(=O)(=O)O`
Result: inactive

Q: Return activity change, negative = cytotoxicity for the following molecule: COCCc1ccc(OCC(O)CNC(C)C)cc1 (configuration not stated)
Result: inactive

Q: Return activity change, negative = cytotoxicity for the following molecule: `O=C(O)c1ccccc1OP(=O)(O)O`
Result: inactive

---

- tested_on: Estrogen receptor (Homo sapiens)
- protocol_summary: qHTS assay to identify small molecule agonists of the estrogen receptor alpha (ER-alpha) signaling pathway (AID 743075);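 further: HEK293 GripTite cells with ER-alpha and UAS-driven beta-lactamase reporter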
- run_parameters: HEK293 ER-alpha-UAS-bla, beta-lactamase FRET ratio, 18 h; series mostly up to 70.1 µM
Records with an inconclusive call do not appear. Calls of active or inactive are those of the source. Calls come from the whole dose curve.
Respond only with the outcome that fits, drawn from 1 for active, -1 for inactive

Q: Name the outcome recorded for `O=C1CCCN1C1CCCCC1` in the assay.
Result: -1

Q: Name the outcome recorded for `O=Cc1cccc([N+](=O)[O-])c1` in the assay.
Result: -1

Q: Name the outcome recorded for `CCN(CC)CCOCCOC(=O)C1(c2ccccc2)CCCC1` in the assay.
Result: -1

Q: Name the outcome recorded for `CCCc1cc(C(N)=S)ccn1` in the assay.
Result: -1

Q: Name the outcome recorded for `CCCCCCCCCCCCCCCCC` in the assay.
Result: -1

Q: Name the outcome recorded for `CCc1nccnc1CC` in the assay.
Result: -1

Q: Name the outcome recorded for CC(C)CCCC(C)N (stereo not given) in the assay.
Result: -1

Q: Name the outcome recorded for `CCOC(=O)c1cccc(N)c1` in the assay.
Result: -1

Q: Name the outcome recorded for `c1ccc([C@H]2CN3CCSC3=N2)cc1` in the assay.
Result: 1

Q: Name the outcome recorded for `Cc1nc2c([nH]1)c(=O)n(C)c(=O)n2Cc1ccco1` in the assay.
Result: -1

Q: Name the outcome recorded for `CCN1CCC[C@H]1CNC(=O)c1c(O)c(Cl)cc(Cl)c1OC` in the assay.
Result: -1

Q: Name the outcome recorded for `NCCCNCCSP(=O)(O)O` in the assay.
Result: -1

Q: Name the outcome recorded for NC(=O)COCCN1CCN(C(c2ccccc2)c2ccc(Cl)cc2)CC1 (stereo not given) in the assay.
Result: -1

Q: Name the outcome recorded for `CCn1nc(C(=O)O)c(=O)c2cc3c(cc21)OCO3` in the assay.
Result: -1

Q: Name the outcome recorded for `CCN(CC)CCNC(=O)c1cc(S(C)(=O)=O)ccc1OC` in the assay.
Result: -1

Q: Name the outcome recorded for `CCCCNC(=O)NCCCC` in the assay.
Result: -1

Q: Name the outcome recorded for `O=C(O)CCCl` in the assay.
Result: -1

Q: Name the outcome recorded for `CN(C)CCCSc1ccccc1NC(=O)/C=C/c1ccccc1` in the assay.
Result: -1

Q: Name the outcome recorded for `NS(=O)(=O)c1ccc(C(=O)O)cc1` in the assay.
Result: -1

Q: Name the outcome recorded for `O=C(O)COc1nn(Cc2ccccc2)c2ccccc12` in the assay.
Result: -1

Q: Name the outcome recorded for `CC1(C)CO[C@@H](CC(=O)O)CN1` in the assay.
Result: -1

Q: Name the outcome recorded for `C=C1CC[C@H]2C[C@@H]1C2(C)C` in the assay.
Result: -1

Q: Name the outcome recorded for C[C@H](NC(CCc1ccccc1)C(=O)O)C(=O)N1CCC[C@H]1C(=O)O (stereo not given in full) in the assay.
Result: -1

Q: Name the outcome recorded for `CCO/C([O-])=N/c1c[n+](N2CCOCC2)no1` in the assay.
Result: -1

Q: Name the outcome recorded for `CCOC(=O)CCC(C)=O` in the assay.
Result: -1

Q: Name the outcome recorded for `Nc1cc(=O)[nH]c(N)n1` in the assay.
Result: -1

Q: Name the outcome recorded for `Nc1c[n+](N2CCOCC2)no1` in the assay.
Result: -1

Q: Name the outcome recorded for Nc1c2c(nc3ccccc13)CCCC2O (stereo not given) in the assay.
Result: -1

Q: Name the outcome recorded for `N=c1nc(N2CCCCC2)cc(N)n1O` in the assay.
Result: -1

Q: Name the outcome recorded for OC1CCCCC1c1ccccc1 (stereo not given) in the assay.
Result: -1

---

- tested_on: Cytochrome P450 2C19 (Homo sapiens)
- protocol_summary: Cytochrome P450 Family 2 Subfamily C Member 19 (CYP2C19) small molecule antagonists: luciferase reporter qHTS assay (AID 1671197); further: nearly all actives have a fitted effect of over 65% in size
- run_parameters: P450-Glo CYP2C19 enzyme, luciferin luminescence, 1 h; series mostly up to 52.9 µM
- Text: National Center for Advancing Translational Sciences [NCATS] U.S. Environmental Protection Agency [EPA] National Institutes of Environmental Health Sciences [NIEHS] National Toxicology Program [NTP] U.S. Food and Drug Administration [FDA] Cytochrome P450 (CYP) enzymes are membrane-bound hemeproteins that play a key role in metabolism of drugs and xenobiotics. […] The luciferin products formed are detected with a luciferin detection reagent, and the amount of light produced is proportional to CYP activity. […]
Records with an inconclusive call do not appear. The source made the active and inactive calls. Calls come from the whole dose curve; as a rule, active = well fitted inhibition curve with a large enough effect in the repeat runs; inconclusive = weak or mixed curves; inactive = no such curve, though single readings can be large or run the other way.
Respond only with the outcome that fits, drawn from active, inactive

Q: Name the outcome recorded for `c1ccc([C@H]2CN3CCSC3=N2)cc1` in the assay.
Result: inactive

Q: Name the outcome recorded for CCC(C)C1CCCCC1=O (configuration not stated) in the assay.
Result: inactive

Q: Name the outcome recorded for `O=C(O)CCCc1ccccc1` in the assay.
Result: inactive

Q: Name the outcome recorded for `CC[N+](C)(C)c1cccc(O)c1` in the assay.
Result: inactive

Q: Name the outcome recorded for `O=c1[nH]c(=O)n([C@H]2C[C@H](O)[C@@H](CO)O2)cc1I` in the assay.
Result: inactive

Q: Name the outcome recorded for `Nc1cc(=O)[nH]c(N)n1` in the assay.
Result: inactive

Q: Name the outcome recorded for `COCCCOCCCOC` in the assay.
Result: inactive

Q: Name the outcome recorded for CC(C[N+](C)(C)C)OC(N)=O (configuration not stated) in the assay.
Result: inactive

Q: Name the outcome recorded for COc1ccc(CCN(C)CCCC(C#N)(c2cc(OC)c(OC)c(OC)c2)C(C)C)cc1OC (configuration not stated) in the assay.
Result: inactive

Q: Name the outcome recorded for `N=C(N)c1ccc2cc(OC(=O)c3ccc(N=C(N)N)cc3)ccc2c1` in the assay.
Result: inactive

Q: Name the outcome recorded for Nc1c2c(nc3ccccc13)CCCC2O (configuration not stated) in the assay.
Result: inactive

Q: Name the outcome recorded for `C=CCCCCCCCCC=O` in the assay.
Result: active
